- Test system: Staphylococcus aureus
- assay.protocol: Antibacterial activity against Staphylococcus aureus clinical isolate incubated for 24 hrs by CLSI-based broth microdilution method
- Type: functional
Assign MIC to each entry below.

Memo: CC[C@H]1OC(=O)[C@H](C)[C@@H](O[C@H]2C[C@@](C)(OC)[C@@H](O)[C@H](C)O2)[C@H](C)[C@@H](O[C@@H]2O[C@H](C)C[C@H](N(C)C)[C@H]2O)[C@](C)(OC)C[C@@H](C)C(=O)[C@H](C)[C@@H](O)[C@]1(C)O , reported MIC: > 64 µg/mL

Memo: CCCCc1ccc(C2=NO[C@H](COc3ccc(F)c(C(N)=O)c3F)C2)cc1 , reported MIC: ≤ 0.125 µg/mL

Memo: CC[C@H]1OC(=O)[C@H](C)[C@@H](O[C@H]2C[C@@](C)(OC)[C@@H](O)[C@H](C)O2)[C@H](C)[C@@H](O[C@@H]2O[C@H](C)C[C@H](N(C)C)[C@H]2O)[C@](C)(O)C[C@@H](C)C(=O)[C@H](C)[C@@H](O)[C@]1(C)O , reported MIC: > 64 µg/mL

---

- System: Bacillus pumilus
- assay.protocol: Antibacterial activity against Bacillus pumilus CMCC63202 incubated for 24 hrs by CLSI-based broth microdilution method
- Format: functional
reported.metric: MIC

Form: item NC(=O)c1c(F)ccc(OCC2CC(c3ccc(Cl)c(Cl)c3)=NO2)c1F (stereo unspecified) ; test system Bacillus pumilus; MIC: > 64 µg/mL

Form: item NC(=O)c1c(F)ccc(OCC2=NOC(c3cccc(Cl)c3)C2)c1F (stereo unspecified) ; test system Bacillus pumilus; MIC: > 64 µg/mL

Form: item CCCCCc1ccc(C2=NOC(COc3ccc(F)c(C(N)=O)c3F)C2)cc1 (stereo unspecified) ; test system Bacillus pumilus; MIC: ≤ 0.125 µg/mL

Form: item N#Cc1ccc(C2=NOC(COc3ccc(F)c(C(N)=O)c3F)C2)cc1 (stereo unspecified) ; test system Bacillus pumilus; MIC: > 64 µg/mL

Form: item CCCCc1ccc(C2=NO[C@H](COc3ccc(F)c(C(N)=O)c3F)C2)cc1 ; test system Bacillus pumilus; MIC: ≤ 0.125 µg/mL

Form: item CCCCc1ccc(C2=NOC(COc3ccc(F)c(C(N)=O)c3F)C2)cc1 (stereo unspecified) ; test system Bacillus pumilus; MIC: ≤ 0.125 µg/mL

Form: item COc1cccc(C2CC(COc3ccc(F)c(C(N)=O)c3F)=NO2)c1 (stereo unspecified) ; test system Bacillus pumilus; MIC: > 64 µg/mL

Form: item NC(=O)c1c(F)ccc(OCC2CC(c3ccc(Br)cc3)=NO2)c1F (stereo unspecified) ; test system Bacillus pumilus; MIC: 4 µg/mL

Form: item CCOc1ccccc1C1CC(COc2ccc(F)c(C(N)=O)c2F)=NO1 (stereo unspecified) ; test system Bacillus pumilus; MIC: > 64 µg/mL

Form: item NC(=O)c1c(F)ccc(OCC2CC(c3cccc(Cl)c3)=NO2)c1F (stereo unspecified) ; test system Bacillus pumilus; MIC: 8 µg/mL

Form: item NC(=O)c1c(F)ccc(OCC2CC(c3ccc(C4CCCCC4)cc3)=NO2)c1F (stereo unspecified) ; test system Bacillus pumilus; MIC: > 64 µg/mL

Form: item NC(=O)c1c(F)ccc(OCC2CC(c3ccco3)=NO2)c1F (stereo unspecified) ; test system Bacillus pumilus; MIC: > 64 µg/mL

Form: item NC(=O)c1c(F)ccc(OCC2CC(c3ccc4c(c3)OCO4)=NO2)c1F (stereo unspecified) ; test system Bacillus pumilus; MIC: 16 µg/mL

Form: item CC(C)(C)c1ccc(C2=NOC(COc3ccc(F)c(C(N)=O)c3F)C2)cc1 (stereo unspecified) ; test system Bacillus pumilus; MIC: ≤ 0.125 µg/mL

Form: item CCCOc1cccc(C2=NOC(COc3ccc(F)c(C(N)=O)c3F)C2)c1 (stereo unspecified) ; test system Bacillus pumilus; MIC: 2 µg/mL

Form: item CC[C@H]1OC(=O)[C@H](C)[C@@H](O[C@H]2C[C@@](C)(OC)[C@@H](O)[C@H](C)O2)[C@H](C)[C@@H](O[C@@H]2O[C@H](C)C[C@H](N(C)C)[C@H]2O)[C@](C)(O)C[C@@H](C)C(=O)[C@H](C)[C@@H](O)[C@]1(C)O ; test system Bacillus pumilus; MIC: ≤ 0.125 µg/mL

Form: item NC(=O)c1c(F)ccc(OCC2=NOC(c3ccc(Cl)cc3)C2)c1F (stereo unspecified) ; test system Bacillus pumilus; MIC: 16 µg/mL

Form: item CN(C)c1ccc(C2=NOC(COc3ccc(F)c(C(N)=O)c3F)C2)cc1 (stereo unspecified) ; test system Bacillus pumilus; MIC: 64 µg/mL

Form: item NC(=O)c1c(F)ccc(OCC2CC(c3ccccc3Cl)=NO2)c1F (stereo unspecified) ; test system Bacillus pumilus; MIC: 64 µg/mL

Form: item Cc1cccc(C2=NOC(COc3ccc(F)c(C(N)=O)c3F)C2)c1 (stereo unspecified) ; test system Bacillus pumilus; MIC: 8 µg/mL

Form: item CCOc1cccc(C2CC(COc3ccc(F)c(C(N)=O)c3F)=NO2)c1 (stereo unspecified) ; test system Bacillus pumilus; MIC: > 64 µg/mL

Form: item COc1ccccc1C1=NOC(COc2ccc(F)c(C(N)=O)c2F)C1 (stereo unspecified) ; test system Bacillus pumilus; MIC: > 64 µg/mL

Form: item NC(=O)c1c(F)ccc(OCC2=NOC(c3ccc(Cl)c(Cl)c3)C2)c1F (stereo unspecified) ; test system Bacillus pumilus; MIC: > 64 µg/mL

Form: item CCc1ccc(C2CC(COc3ccc(F)c(C(N)=O)c3F)=NO2)cc1 (stereo unspecified) ; test system Bacillus pumilus; MIC: 16 µg/mL

Form: item CCOc1cccc(C2=NOC(COc3ccc(F)c(C(N)=O)c3F)C2)c1 (stereo unspecified) ; test system Bacillus pumilus; MIC: 8 µg/mL

Form: item CC(C)c1ccc(C2=NOC(COc3ccc(F)c(C(N)=O)c3F)C2)cc1 (stereo unspecified) ; test system Bacillus pumilus; MIC: ≤ 0.125 µg/mL
